- procedure details: yeast display, Sf9 membrane polyspecificity reagent, FACS + sequencing; frameworks hold sequencing errors
measured parameter: polyreactivity (PSR sort gate)

QVQLVESGGGLVQAGGSLRLSCAASGRIFWWYAMGWYRQAPGKERELVASISSRGTSTYYADSVKGRFTISRDNAKHTVYLQMNSLKPEDTAFYYCAARRPGRTSQDRYKYDYWGQGTQVTVSS    high polyreactivity
QVQLVESGGGLVQAGGSLRLSCAASGRIFGTNAMGWYRQAPGKERELVAAISRSGGSTYYADSVKGRFTISRDNAKNTVYLQMNSLKPEDTAVYYCATDGRHTYYYWGQGTQVTVSS    high polyreactivity
QDQLVESGGGLVQAGGSLRLSCAASGNIIRKYAMGWYRQAAGKEREFVAAISSSGGRTYYADSVKGRFTISRDNAKNTVYLQMNSLKPEDTAVYYCAAEDWSYYDYDYWGQGTQVTVSS    high polyreactivity
QVQLVESGGGLVQAGGSLRLSCAASGSIFEIYDMGWYRQAPGKERELVASITWSGGSTYYADSVKGRFTISRDNAKNTVYLQMNSLKPEDTAVYYCATDKLYGRTVRMDYWGQGTQVSVSS    low polyreactivity
QVQLVESGGGLVQAGGSLRLSCAASGLIFRHYAMGWYRQAPGKERELVAAIDYSGGSTYYADSVKGRFTISRDNAKNTVYLQMNSLKPEDTAVYYCAADYFWLYYSEYGYWGQGTQVTVSS    low polyreactivity
QVQLVESGGGLVQAGGSLRLSCAASGSTFAIYAMGWYRKSPGKERELVASISGGSTNYADSVKGRFTISRDNAKNTVYLQMNSLKPEDTSVYYCAARGALHHWYRFDYWGQGTQVTLSS    low polyreactivity
QLQHVESGGGLVQAGGSLRLSCADSGRTFQYYAMGSYRQPPGKESELVAAINTSGGRTSYADSVKGRFTISRDNAKNTVYLQMNILKPEDTAVYYCAAKPFSYVYSSYYYWGQGTQVTVSS    high polyreactivity
QVQLVESGGGLVQAGGSLRLSCAASGFIFFSNAMGWYRQAPGKEMELVAAISRIGVSTYYADSLKGRFTISRDNAKNTVYLQMKSLKPEYTAVYYCNKSNPDYDGLAIHAFDYWGQGTQVTVSS    low polyreactivity
QVQLVESGGGLVQAGGSLRLSCAASGRIFSVNAMGWYRQAPGNERELVAAMTSGDSTNYADSVKGRFTISRDNAKNTVYLQMNSLKPEDNAVYYCNARGSQELWRRKWYHTEYDYWGQGTQVTVSS    low polyreactivity
QVQLVESGGGLVQAGGSLRLSCAASGRIFDHYAMGWYRQAPGKERELVAAITRSGGITYYADSVKGRFTISRDNAKNTVYLQMNSLKPEDTAVYSCAALSYRYTDKFDYWGQGTQVTVSS    low polyreactivity
QVQLVESGGGLVQAGGSLRLSCAASGITFEYYAMGWYRQAPGKERELVAAISWSGSSTYYADSVKGRFTISRDNAKNTVYLQMNSLKPEDTAVYYCNADSSWWASDDQYDYWGQGTQVTVSS    low polyreactivity
QVQLVESGAGLVQAGGSLRLSCAASGLTFALYAMGGYRQAPGKERELVAAIDWSGGITYYADSVKGRFTISRDNAKNTVYLQLNSLKPEDTAVYYCAARPSTFKYKYGYWGQGTQVTVSS    high polyreactivity
QVLLEESVGGLDQAGGSLRLSCAASGFNFQTNAMGRYRQAPGKEREFVAAISDSGGSTNYADSVKGRFTISRDNAKNTGYLQMNSLKPEDSAVYYCATSFAVYDYDYWGQGTQVTVSS    low polyreactivity
QVQLVESGGGLVQAGGSLRLSCAASGLILYWYAMGWYRQAPGKERELVAAISISGGSTYYADSVKGRFTISRDNAKNTVYLQMNSLKPDDTAVYYSAAVYFYSWEGDGDYWGLGTQVTVSS    low polyreactivity
QVQLVESGGGLVQAGRSLRLSCAASGSILGFYAMGWYRHAPGKERELVAAIRWRAGSTYYADSVKGRFTISRDNAKNTVNLQMNSLKPEDTAVYYCAAPTKYRSRRYYWGQGTQVTVSS    high polyreactivity
QVQLVESGGGLVQAGGSLRLSCAASGRIFAPYAMGWYRQAPGKEWQLVAAIRTSGGRTYYADSVKGRFTISRDNAKNTVYLQMNSLKPEDSAVYYCAPLAWSTGRTTTVYDYWGLGTQVTVSS    high polyreactivity
QVQLVESGGGLVQAGGSLRLSCAASGFIFGGNAMGWYRQAPGKERELVAAITARSGSTYYADSVKGRFTISRDNAKNTVYLQMNSLKPEDTAVYYCATPVYRSTYEYDYWGQGTQVTVSS    low polyreactivity
QVQLVESGGGLVQEGGSLRLSCAASGSTFTYYAMGWYRQAPGKERELVAAISRSGGNTYYADSVKGRFTISRDNAKNTVYLQMNSLKPEDTAVYYCAAYRQVYGFDYWGQGTQVTVSS    high polyreactivity
QVQLVESGGGLVQAGGSLRLSCAASGYIFKVNSMGWYRQAPGKERELVADISRNSGSTRYADSVKGRFTISRDNAKNTVYLQMNSLKPDDTAVYYFAADGRYWVKPGSPWDRSRYDYWGQGTQVTVSS    low polyreactivity
QVQLVESGGGLVQAGGSLRFSCAASGGIFWYNAMGWYRQAPGKERELVAAISASTGSTYYADSVKGRFTISRDNAKNTVYLQMNSLKPEDTAVYYCAATRYRSARYAYGHWGQGTQVTVSS    high polyreactivity
QVQLVESGGGLVQAGGSLRLSCAASGRIFRQNAMGWYRQAPGKERELVAAISRSGGSTYYADSVKGRFTISRDNAKNTVYLQMNSLNPEDTAVYYCNRDYQSQRTYPRRYDYWGQGTQVTVSS    low polyreactivity
